Tested on: HL-60(TB) leukemia
Assay: NCI tumour cell line growth inhibition, 48 h
If the reported TGI equals or exceeds 6 µM, assign rule met. If not, assign rule not met.

### Prompt Does the compound CCCCCCC1N=C(N)N=C(N)N1c1ccc(Cl)cc1 (configuration not stated) have recorded TGI that is 6 µM or more?
### Response rule met

### Prompt Does the compound Cc1cc(C)c2[s+]snc2c1 have recorded TGI that is 6 µM or more?
### Response rule met

### Prompt Does the compound O=P1(O)c2ccccc2CS(=O)(=O)Cc2ccccc21 have recorded TGI that is 6 µM or more?
### Response rule met

### Prompt Does the compound CC1=NN(c2ccccc2)C(=O)C1N=Nc1ccc(Br)c(C)c1 (configuration not stated) have recorded TGI that is 6 µM or more?
### Response rule met

### Prompt Does the compound COC(=O)CCc1ccc2c(c1)CC1(C2)Cc2ccc3c(c2C1)CCC3 (configuration not stated) have recorded TGI that is 6 µM or more?
### Response rule met

### Prompt Does the compound O=[N+]([O-])c1ccc(N2N=C(c3ccc4ccccc4c3O)CC2c2ccc(Cl)cc2Cl)c([N+](=O)[O-])c1 (configuration not stated) have recorded TGI that is 6 µM or more?
### Response rule met

### Prompt Does the compound CCOC(=O)CC(N1CC1)N1CC1 have recorded TGI that is 6 µM or more?
### Response rule met
